biological target: HIV-1 integrase (Human immunodeficiency virus type 1 group M subtype B, UniProt P12497); assay: HIV integrase substrate cleavage (trimming of the 3′ end of HIV long terminal repeat terminus)
PROPERTY_MEASURED: pIC50
// pIC50 here means minus log10 of the molar concentration (mol/L)

Name the recorded pIC50 of the compound listed here: COc1cc(O)c2c(OC)c3c(cc2c1-c1c(OC)cc(OC)c2c(OC)c4c(cc12)OC(C)C(C)C4=O)OC(C)C(C)C3=O (stereo not drawn)
4.40

Report measured pIC50; entry is CC1Oc2cc3c(-c4c(O)cc(O)c5c(O)c6c(cc45)OC(C)C(C)C6=O)c(O)cc(O)c3c(O)c2OC(=O)C1C (stereo not drawn)
5.52

Quick one: give measured pIC50 for CC1Oc2cc3c(-c4c(O)cc(O)c5c(O)c6c(cc45)OC(C)C(C)C6=O)c(O)cc(O)c3c(O)c2C(=O)C1C (single isomer, unassigned)
5.70

====

target: HIV integrase (Human immunodeficiency virus type 1 group M subtype B); test: Strand transfer assay for HIV integrase (microtiter assay, ligation of processed donor DNA to nicked host DNA)
So I've got a bunch of compounds here, and I need their IC50 values.
Dear colleague, please return just the value in µM, with no unit written.

Identify measured IC50 corresponding to Cc1oc2cc3c(-c4c(O)cc(O)c5c(O)c6c(cc45)OC(C)C(C)C6=O)c(O)cc(O)c3c(O)c2c(=O)c1C (stereo not drawn) [Compound D]
4

State its IC50 for this compound: CC1Oc2cc3c(-c4c(O)cc(O)c5c(O)c6c(cc45)OC(C)C(C)C6=O)c(O)cc(O)c3c(O)c2C(=O)C1C (single isomer, unassigned) [Compound A]
12

Provide one value: measured IC50 of CC1Oc2cc3c(-c4c(O)cc(O)c5c(O)c6c(cc45)OC(C)C(C)C6=O)c(O)cc(O)c3c(O)c2OC(=O)C1C (stereo not drawn) [Compound C]
9

====

Please go through the items and note down their IC50.
target: HIV-1 integrase (Human immunodeficiency virus type 1 group M subtype B); assay: HIV integrase substrate cleavage (trimming of the 3′ end of HIV long terminal repeat terminus)
Field: numeric (µM). Do not append units.

Provide IC50 value for the following molecule: COc1cc(OC)c2c(OC)c3c(cc2c1-c1c(OC)cc(OC)c2c(OC)c4c(cc12)OC(C)C(C)C4=O)OC(C)C(C)C3=O (stereo not drawn)
60

Note IC50 for the molecule shown: Cc1oc2cc3c(-c4c(O)cc(O)c5c(O)c6c(cc45)OC(C)C(C)C6=O)c(O)cc(O)c3c(O)c2c(=O)c1C (stereo not drawn)
1

Give reported IC50 value for CC(=O)Oc1cc(OC(C)=O)c2c(OC(C)=O)c3c(cc2c1-c1c(OC(C)=O)cc(OC(C)=O)c2c(OC(C)=O)c4c(cc12)OC(C)C(C)C4=O)OC(C)C(C)C3=O (stereo not drawn)
50
